Experiment: Quantitative High-Throughput drug screen in 47 multiple myeloma cell lines against the NCATS MIPE library collection: JIM3_ECACC cell viability assay (AID 1918963;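 further: 100% = DMSO-only wells and 0% = media-only wells without cells; nearly all actives have a fitted effect of over 35% in size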)
Conditions: JIM3 myeloma viability, CellTiter-Glo ATP, 48 h; series mostly up to 45.8 µM
Inconclusive results are not listed. Active and inactive are the calls of the source. The call rests on the fitted dose curve; in most records, active means well fitted cell-killing curve with a large enough effect; inconclusive means small, poorly fitted or top-dose-only effect; inactive means no such curve, though single readings can be large or run the other way.
Just give me one of these, please: active, inactive

{"columns": ["Molecule smiles", "Class"],
 "data": [
  ["CN[C@@H](C)[C@H]1[C@H](O)C[C@@]2(C)[C@@H]3CC[C@H]4C(C)(C)[C@@H](NC)CC[C@@]45C[C@@]35CC[C@]12C", "inactive"]
]}

Problem: Name the outcome recorded for OC[C@H]1O[C@@H](O[C@H]2[C@@H](O)[C@@](O)(CO)O[C@@H]2CO)[C@H](O)[C@@H](O)[C@@H]1O in the assay.
Solution: inactive

Problem: Next: Cc1ccc(C2=Nc3ccc(Cl)cc3OC2)cc1
Solution: inactive

###

Test: Quantitative High-Throughput drug screen in 47 multiple myeloma cell lines against the NCATS MIPE library collection: KMS11_JCRBsus cell viability assay (AID 1919873); further: nearly all actives have a fitted effect of over 50% in size
Conditions: KMS11 myeloma viability, CellTiter-Glo ATP luminescence, 48 h; series mostly up to 45.8 µM
Records with an inconclusive call do not appear. Calls of active or inactive are those of the source. The call rests on the fitted dose curve; in most records, active means well fitted cell-killing curve with a large enough effect; inconclusive means small, poorly fitted or top-dose-only effect, or effect the other way; inactive means no such curve, though single readings can be large or run the other way.
Just give me one of these, please: t for active, f for inactive

Look over these answered cases.
{"columns": ["Compound", "Class"],
 "data": [
  ["CCC(=O)NCC[C@@H]1CCc2ccc3c(c21)CCO3", "f"],
  ["O=C(O)C1=CC(O)C(O)[C@H](O)C1 (stereo partly drawn)", "f"]
]}

Next, consider the following compound.
Problem: Name the outcome recorded for Cc1ccc(NC(=O)c2cccc(N(C)C)c2)cc1NC(=O)c1ccc(O)cc1 in the assay.
Solution: t

###

Experiment: qHTS profiling of the MIPE4 collection as inhibitors of Plasmodium falciparum (DD2) proliferation (AID 743345)
Settings: P. falciparum Dd2 in erythrocytes, SYBR Green DNA, 72 h; at 28.5 µM (top of the series) unless noted
Metric: parasite growth remaining, % of DMSO control (lower = more inhibition) (%)
Only the number, expressed in %, is required.

{"columns": ["Compound", "Assay result"],
 "data": [
  ["CC[C@H](C)n1cc(C)c2c(C(=O)NCc3c(C)cc(C)[nH]c3=O)cc(-c3ccc(N4CCNCC4)nc3)cc21", 8.83],
  ["O=c1[nH]c(=O)n([C@H]2C[C@@H](O)[C@@H](CO)O2)cc1I", 39.2],
  ["Nc1ncnc2c1ncn2[C@@H]1O[C@H](CO)[C@@H](O)[C@@H]1O", 98],
  ["O=C(Nc1ncc(SCCN2CCCC2)s1)[C@]1(c2ccc(S(=O)(=O)C3CC3)cc2)C[C@@H]1C1CCCCC1", 7.78],
  ["CCNC(=O)c1noc(-c2cc(C(C)C)c(O)cc2O)c1-c1ccc(CN2CCOCC2)cc1", 7.71],
  ["N#CC(c1ccc(Cl)cc1)c1c(Cl)cc(-n2ncc(=O)[nH]c2=O)cc1Cl (stereo not given)", 10.7],
  ["CC(C)(O)CC(=O)NCCn1ccc2ncnc(Nc3ccc(Oc4cccc(C(F)(F)F)c4)c(Cl)c3)c21", 18.3],
  ["CC(C)Oc1cc(Nc2nc(N[C@@H](C)c3ccc(F)cn3)ncc2Cl)[nH]n1", 10.8]
]}

Problem: parasite growth remaining, % of DMSO control (lower = more inhibition) lookup needed for COc1cc2ncnc(Nc3cc(Br)c(O)c(Br)c3)c2cc1OC , thanks.
Solution: 54.4

Problem: Next: CCCCCCCCCCCCCCCC(=O)O[C@H]1[C@@H](O)[C@@H](O)[C@@H]([C@H](NC(=O)[C@@H]2C[C@@H](CCC)CN2C)[C@H](C)Cl)O[C@@H]1SC
Solution: 11

Problem: Next: O=C1NC(=O)C(=Cc2ccc(-c3ccc(F)cc3O)o2)S1
Solution: 71.3

Problem: Next: Nc1ccc(-c2ccc3ncc4ccc(=O)n(-c5cccc(C(F)(F)F)c5)c4c3c2)cn1
Solution: 5.9

Problem: Next: CC[C@H](C)C(=O)O[C@H]1C[C@H](O)C=C2C=C[C@H](C)[C@H](CC[C@@H](O)C[C@@H](O)CC(=O)O)[C@H]21
Solution: 105

Problem: Next: CC(NCCc1ccc(O)cc1)C(O)c1ccc(O)cc1 (stereo not given)
Solution: 102

// provenance: PubChem BioAssay (NCATS)
